experimental_target: wildtype feline IL-31 (Feline_IL31_wildtype) (feline)
Sequence (chain, as listed by the source limits assumed, form in doubt): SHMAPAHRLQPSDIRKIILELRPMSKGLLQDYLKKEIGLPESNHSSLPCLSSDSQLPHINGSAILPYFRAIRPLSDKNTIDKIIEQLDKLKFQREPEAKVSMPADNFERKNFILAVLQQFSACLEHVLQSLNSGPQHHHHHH
IC50, inhibition of feline IL-31-induced STAT3 phosphorylation, feline FCWF4 cells values by entry
experimental_readout: IC50, inhibition of feline IL-31-induced STAT3 phosphorylation, feline FCWF4 cells

binder	data_value
mouse anti IL-31 antibody 15H05 (antibody, V domains shown) VH: QVQLQQSAAELARPGASVKMSCKTSGYTFTSYTIHWIKQRPGQGLEWIGNINPTSGYTENNQRFKDKTTLTVDRSSNTAYLQLHSLTSEDSAVYFCARWGFKYDGEWSFDVWGAGTTVTVSS VL: DIQMNQSPSSLSASLGDTITVTCRASQGISIWLSWYQQKPGNIPKVLINKASNLHIGVPPRFSGSGSGTHFTLTITSLQPEDIATYYCLQSQTYPLTFGGGTKLEIN	4.26 µg/mL
Feline 11E12 1.1 FW2 (antibody, V domains shown) VH: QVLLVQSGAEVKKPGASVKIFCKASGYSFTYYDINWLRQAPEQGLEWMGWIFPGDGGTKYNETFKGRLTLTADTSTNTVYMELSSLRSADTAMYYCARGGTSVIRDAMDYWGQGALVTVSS VL: EIQMTQSPSSLSASPGDRVTITCRASESVDNYGISFMHWYQQKPGQPPKLLIYRASNLESGVPSRFSGSGSGTDFTLTISSLEPEDAATYYCQQSNKDPLTFGQGT	4.38 µg/mL
mouse anti IL-31 antibody 11E12 (antibody, V domains shown) VH: QVQLQQSGAELVKPGASVKLSCKASGYTFKYYDINWVRQRPEQGLEWIGWIFPGDGGTKYNETFKGKATLTTDKSSSTAYMQLSRLTSEDSAVYFCARGGTSVIRDAMDYWGQGTSVTVSS VL: DIVLTQSPASLAVSLGQRATISCRASESVDNYGISFMHWYQQKPGQPPKLLIYRASNLESGIPARFSGSGSRTDFTLTINPVETDDVATYYCQQSNKDPLTFGAGTKLELK	2.01 µg/mL
